Attribute: growth inhibition
protocol description: NCI Yeast Anticancer Drug Screen. Data for the mlh1 rad18 strain (AID 175)
measurement context: S. cerevisiae mlh1 rad18 strain growth inhibition; at 50.0 µM; stronger effect = higher value
Description: Growth inhibition of yeast strains with defined genetic alterations is measured as a screen for potential anti-cancer activity. Selected strains with alterations in DNA damage repair or cell cycle control were exposed to compounds and growth inhibition was measured relative to vehicle treated controls. The strain used in this assay is mlh1 rad18
The panel holds about 79,000 compounds, 15% with a hit somewhere; the sample as a whole holds those more often. Activity calls are given as the source filed them. Cut-off read from the data, not from the text of the source: active = growth inhibition above about 70%; inactive = the rest.

compound: CC(NC(=O)C(CSCc1ccccc1)NC(=O)OCc1ccccc1)C(=O)OCc1ccccc1 (stereo not given)
growth inhibition: 10.8% (inactive)
//
compound: CCn1c(=O)ccc2ccc(N(CCO)CCO)nc21
growth inhibition: 10.1% (inactive)
//
compound: COc1cc2c(c(OC)c1OC)-c1ccc(SCC3CCC4CC3C4(C)C)c(=O)cc1C(NC(C)=O)CC2 (stereo not given)
growth inhibition: 96.9% (active)
//
compound: CC(=O)N1C(Nc2ccccn2)CCN1c1ccccc1 (stereo not given)
growth inhibition: -23.2% (inactive)
//
compound: Cc1ccsc1/C=N/Nc1nncc2ccccc12
growth inhibition: 9.7% (inactive)
//
compound: O=[N+]([O-])c1ccc2c(ccn2C2OCC(O)C(O)C2O)c1 (stereo not given)
growth inhibition: -2.7% (inactive)
//
compound: C/C(=N\NS(=O)(=O)c1ccc(C)cc1)c1c(C)noc1C
growth inhibition: 13.3% (inactive)
//
compound: O=c1c2ccccc2oc2nc3ccc(Cl)cc3n12
growth inhibition: -1.85% (inactive)
//
compound: O=[N+]([O-])c1ccccc1S(=O)c1ccccc1 (stereo not given)
growth inhibition: -6.25% (inactive)
//
compound: N#Cc1ccc(Nc2cnc3ccc(N)cc3n2)cc1
growth inhibition: -54.1% (inactive)
